- Organism: Rattus norvegicus
- ASSAY_EXPLANATION: Open TG-GATES - Regimen: Daily Repeat
- Type: toxicity, organism-based, Sprague-Dawley
- Set-up: regimen Daily Repeat, gender Male, age 6 weeks
- APPLIED_CONDITIONS: in vivo, po, 100 mg/kg, 72 h, tissue Blood, route gavage, dose level Low, time 3 day
Lab note: cut-off is 20 s. Strictly less in APTT is 1.0. Exactly 20 s or more is 0.0.

Examples from the recorded data:
[[record]]
molecule_smiles = "O=C(OC[C@H]1O[C@@H](OC(=O)c2cc(O)c(O)c(OC(=O)c3cc(O)c(O)c(O)c3)c2)[C@H](OC(=O)c2cc(O)c(O)c(OC(=O)c3cc(O)c(O)c(O)c3)c2)[C@@H](OC(=O)c2cc(O)c(O)c(OC(=O)c3cc(O)c(O)c(O)c3)c2)[C@@H]1OC(=O)c1cc(O)c(O)c(OC(=O)c2cc(O)c(O)c(O)c2)c1)c1cc(O)c(O)c(OC(=O)c2cc(O)c(O)c(O)c2)c1"
assigned_category = 1.0

[[record]]
molecule_smiles = "CN/C(=N/CCSCc1nc[nH]c1C)NC#N"
assigned_category = 1.0

[[record]]
molecule_smiles = "Cc1nnc2n1-c1ccc(Cl)cc1C(c1ccccc1Cl)=NC2"
assigned_category = 0.0


--- query ---
# check: APTT < 20 s for `COC(=O)C1=C(C)NC(C)=C(C(=O)OC)C1c1ccccc1[N+](=O)[O-]` 1.0

---

- Species on record: Rattus norvegicus
- ASSAY_EXPLANATION: Open TG-GATES - Regimen: Daily Repeat
- Format: toxicity, organism-based, Sprague-Dawley
- Set-up: regimen Daily Repeat, gender Male, age 6 weeks
- APPLIED_CONDITIONS: in vivo, po, 300 mg/kg, […], tissue Plasma, route gavage, dose level Middle, time 7 day
List of AST values.
Give just the numeric value; IU/L need not be written.

[[record]]
compound = "COC(=O)C1=C(C)NC(C)=C(C(=O)OC)C1c1ccccc1[N+](=O)[O-] [NIFEDIPINE]"
measured_metric = "AST"
quantitative_result = 68.6

[[record]]
compound = "O=C(OC[C@H]1O[C@@H](OC(=O)c2cc(O)c(O)c(OC(=O)c3cc(O)c(O)c(O)c3)c2)[C@H](OC(=O)c2cc(O)c(O)c(OC(=O)c3cc(O)c(O)c(O)c3)c2)[C@@H](OC(=O)c2cc(O)c(O)c(OC(=O)c3cc(O)c(O)c(O)c3)c2)[C@@H]1OC(=O)c1cc(O)c(O)c(OC(=O)c2cc(O)c(O)c(O)c2)c1)c1cc(O)c(O)c(OC(=O)c2cc(O)c(O)c(O)c2)c1 [TANNIC ACID]"
measured_metric = "AST"
quantitative_result = 62.2

[[record]]
compound = "CNC(=C[N+](=O)[O-])NCCSCc1ccc(CN(C)C)o1 [RANITIDINE]"
measured_metric = "AST"
quantitative_result = 61.4

[[record]]
compound = "Cc1nnc2n1-c1ccc(Cl)cc1C(c1ccccc1Cl)=NC2 [TRIAZOLAM]"
measured_metric = "AST"
quantitative_result = 75

[[record]]
compound = "CN/C(=N/CCSCc1nc[nH]c1C)NC#N [CIMETIDINE]"
measured_metric = "AST"
quantitative_result = 64.6


// below: AST requested for another compound
Reported AST for CCOc1ccc(NC(C)=O)cc1 [PHENACETIN] : what is it? 64.6

Reference for the values: ChEMBL document CHEMBL3885861
